# System: S. aureus RN4220
# measurement-notes: growth inhibition call (relative growth <= 0.2)
# experimental-context: 50 µM
In all, about 39,000 compounds went through this assay and about 500 (1.3%) were called active. Shown is part of a subset that was picked to be rich in actives.
Lab note: assign the record to one of active, inactive

Reference set, count: 5
{"molecule": "COc1ccc(NC(=O)N(C)C[C@@H]2OCCCC[C@H](C)Oc3ccc(NC(=O)Cc4ccccc4)cc3C(=O)N([C@@H](C)CO)C[C@@H]2C)cc1", "target-system": "S. aureus RN4220", "classification": "inactive"}
{"molecule": "NCc1ccccc1CC(=O)NC1C(=O)N2C(C(=O)O)=C(CSc3nnnn3CC(=O)O)CSC12 (stereo not given)", "target-system": "S. aureus RN4220", "classification": "active"}
{"molecule": "COc1ccc(/C=C/CN2CCC(C(=O)N[C@@H](c3ccc(F)cc3)c3ccc4ccccc4n3)CC2)cc1", "target-system": "S. aureus RN4220", "classification": "inactive"}
{"molecule": "O=C(N[C@@H](c1ccc(-c2ccccc2)cc1)c1cnccn1)C1CCN(Cc2ccc(Cl)c(Cl)c2)CC1", "target-system": "S. aureus RN4220", "classification": "inactive"}
{"molecule": "Cc1ccc(-c2ccc3c(c2)O[C@H](CN(C)C(=O)NC(C)C)[C@@H](C)CN([C@@H](C)CO)S3(=O)=O)cc1", "target-system": "S. aureus RN4220", "classification": "inactive"}

I'd appreciate the recorded outcome for "O=C(N[C@@H](c1ccccc1)c1ccc2ccccc2n1)C1CCN(Cc2ccc(Oc3ccccc3)cc2)CC1" from this test.
inactive

I'd appreciate the recorded outcome for O=C([O-])C1=C(CSc2nnnn2CS(=O)(=O)[O-])CSC2C(NC(=O)C(O)c3ccccc3)C(=O)N12.[Na+].[Na+] (stereo not given) from this test.
active

I'd appreciate the recorded outcome for "COc1ccc(S(=O)(=O)N(C)C[C@@H]2Oc3ccc(NS(=O)(=O)c4cccs4)cc3CC(=O)N([C@@H](C)CO)C[C@H]2C)cc1" from this test.
inactive

I'd appreciate the recorded outcome for "COc1cc(CN2CCC(C(=O)N[C@@H](c3ccc(-c4ccccc4)cc3)c3cnccn3)CC2)cc(OC)c1" from this test.
inactive

I'd appreciate the recorded outcome for "C[C@H]1CCCCO[C@H](CN(C)C(=O)Cc2ccccc2)[C@@H](C)CN([C@@H](C)CO)C(=O)c2cc(NC(=O)Nc3ccc(F)cc3)ccc2O1" from this test.
inactive

###

# Test system: S. aureus RN4220
# measurement-notes: growth inhibition call (relative growth <= 0.2)
# experimental-context: 50 µM
About 500 (1.3%) of roughly 39,000 compounds were called active. The list comes from a sample in which actives are over-represented; it also holds close analogues and randomly drawn compounds.
reported-endpoint: growth inhibition call

{"smiles-entry": "CSCC[C@H](NC(=O)[C@H](Cc1c[nH]c2ccccc12)NC(=O)CNC(=O)[C@@H](NC(=O)[C@H](Cc1ccc(OS(=O)(=O)O)cc1)NC(=O)[C@H](CC(=O)O)NC(=O)[C@H](CCC(N)=O)NC(=O)[C@@H]1CCC(=O)N1)[C@@H](C)O)C(=O)N[C@@H](CC(=O)O)C(=O)N[C@@H](Cc1ccccc1)C(N)=O", "target-system": "S. aureus RN4220", "data-value": "inactive"}
{"smiles-entry": "O=C1CCCNc2ccc(Cl)cc21", "target-system": "S. aureus RN4220", "data-value": "inactive"}
{"smiles-entry": "CC(C)NC(=O)N(C)C[C@@H]1Oc2ccc(NC(=O)CCN3CCOCC3)cc2C(=O)N([C@H](C)CO)C[C@@H]1C", "target-system": "S. aureus RN4220", "data-value": "inactive"}
{"smiles-entry": "O=C(C[C@@H]1C=C[C@@H](NC(=O)Nc2ccc3c(c2)OCO3)[C@H](CO)O1)NCCCN1CCOCC1", "target-system": "S. aureus RN4220", "data-value": "inactive"}
{"smiles-entry": "CC(C)NC(=O)Nc1ccc2c(c1)C(=O)N([C@@H](C)CO)C[C@H](C)[C@@H](CN(C)Cc1ccccc1)OCCCC[C@H](C)O2", "target-system": "S. aureus RN4220", "data-value": "inactive"}
{"smiles-entry": "CCCCCCCCCC(=O)N[C@@H](Cc1c[nH]c2ccccc12)C(=O)N[C@H](CC(N)=O)C(=O)N[C@@H](CC(=O)O)C(=O)N[C@@H]1C(=O)NCC(=O)N[C@@H](CCCN)C(=O)N[C@@H](CC(=O)O)C(=O)N[C@H](C)C(=O)N[C@@H](CC(=O)O)C(=O)NCC(=O)N[C@H](CO)C(=O)N[C@@H]([C@H](C)CC(=O)O)C(=O)N[C@@H](CC(=O)c2ccccc2N)C(=O)O[C@@H]1C", "target-system": "S. aureus RN4220", "data-value": "active"}

What the record says about "O=C1CCNc2cc3ccccc3cc21" : growth inhibition call is active

###

# System: S. aureus RN4220
# measurement-notes: growth inhibition call (relative growth <= 0.2)
# experimental-context: 50 µM
Among all 39,000 compounds or so, about 500 (1.3%) were called active. The full list was thinned out, with actives kept by preference.
reported-endpoint: growth inhibition call

Consider the following illustrative entries.
{"smiles-entry": "O=C(C[C@@H]1CC[C@H]2[C@@H](COC[C@@H](O)CN2S(=O)(=O)c2ccc(Cl)cc2)O1)NCC1CCCCC1", "data-value": "active"}
{"smiles-entry": "C[C@@H]1CN([C@@H](C)CO)C(=O)CCCn2cc(nn2)CO[C@H]1CN(C)C(=O)C1CC1", "data-value": "inactive"}
{"smiles-entry": "COc1ccc(S(=O)(=O)N(C)C[C@@H]2Oc3c(NS(=O)(=O)c4ccc(C)cc4)cccc3C(=O)N([C@H](C)CO)C[C@@H]2C)cc1", "data-value": "inactive"}
{"smiles-entry": "Cc1ccc(-c2cnc3c(c2)C(=O)N([C@H](C)CO)C[C@@H](C)[C@H](CN(C)C(=O)Cc2cccnc2)O3)cc1", "data-value": "inactive"}
{"smiles-entry": "COC(=O)c1c(C)c2c(c(C)c1OC)OC(=O)c1c(C)c(Cl)c(OC)c(Cl)c1O2", "data-value": "inactive"}
{"smiles-entry": "COC(=O)c1c(C)c2c(c(C)c1O)OC(=O)c1c(C)c(Cl)c(O)c(Cl)c1O2", "data-value": "active"}
{"smiles-entry": "O=C(C[C@@H]1CC[C@H]2[C@@H](COC[C@H](O)CN2S(=O)(=O)c2ccc(Cl)cc2)O1)NCC1CCCCC1", "data-value": "inactive"}

From here, focus on the item given below.
What the record says about "O=C(C[C@@H]1CC[C@@H]2[C@H](COC[C@@H](O)CN2S(=O)(=O)c2ccc(Cl)cc2)O1)NCC1CCCCC1" : growth inhibition call is inactive

###

# System: S. aureus RN4220
# measurement-notes: growth inhibition call (relative growth <= 0.2)
# experimental-context: 50 µM
Out of some 39,000 compounds screened, about 500 (1.3%) were called active. The full list was thinned out, with actives kept by preference.
reported-endpoint: growth inhibition call

{"molecule": "C[C@@H]1CCCCO[C@H](CN(C)S(=O)(=O)c2ccccc2)[C@H](C)CN([C@H](C)CO)C(=O)c2cc(NC(=O)Nc3ccc(C(F)(F)F)cc3)ccc2O1", "data-value": "inactive"}
{"molecule": "Cn1c(=O)c2c(ncn2CC(=O)N2CCN(c3ccccc3F)CC2)n(C)c1=O", "data-value": "inactive"}
{"molecule": "NCCCC[C@H](NC(=O)[C@@H]1CCCN1C(=O)[C@@H]1CSSC[C@H](N)C(=O)N[C@@H](Cc2ccccc2)C(=O)N[C@@H](Cc2ccccc2)C(=O)NC(CCC(N)=O)C(=O)N[C@@H](CC(N)=O)C(=O)N1)C(=O)NCC(N)=O (stereo partly drawn)", "data-value": "inactive"}

###

# Test system: S. aureus RN4220
# measurement-notes: growth inhibition call (relative growth <= 0.2)
# experimental-context: 50 µM
Among all 39,000 compounds or so, about 500 (1.3%) were called active. What follows is part of a selection rich in actives, with near analogues and random picks from the rest.
Lab note: assign the record to one of label 1 (active), label 0 (inactive)

Reference set, count: 10
{"compound": "COc1ccccc1NC(=O)C1=C(C)N=C(SCC(=O)Nc2ccccc2[N+](=O)[O-])C(C#N)[C@@H]1c1ccccc1F (some centres not stated)", "target-system": "S. aureus RN4220", "classification": "label 0"}
{"compound": "CN(CC(=O)O)S(=O)(=O)c1ccc(F)cc1", "target-system": "S. aureus RN4220", "classification": "label 0"}
{"compound": "C[C@H](CO)N1C[C@H](C)[C@@H](CN(C)S(=O)(=O)c2cn(C)cn2)Oc2ccc(NC(=O)NC3CCCCC3)cc2CC1=O", "target-system": "S. aureus RN4220", "classification": "label 0"}
{"compound": "C[C@H]1CC/C=C\\[C@H]2O[C@@]34C=CCN(c5ccc6ccccc6c5)C(=O)[C@H]3N(CCCO)C(=O)[C@@H]4[C@@H]2C(=O)O1", "target-system": "S. aureus RN4220", "classification": "label 0"}
{"compound": "COC1C(O)CC(=O)OC(C)CC=CC=CC(O)C(C)CC(CC=O)C1OC1OC(C)C(OC2CC(C)(O)C(OC(=O)CC(C)C)C(C)O2)C(N(C)C)C1O (configuration not stated) [KITASAMYCINS [A1 shown]]", "target-system": "S. aureus RN4220", "classification": "label 1"}
{"compound": "COc1ccc(NC(=O)N(C)C[C@@H]2OCCCC[C@H](C)Oc3ccc(NS(=O)(=O)c4ccc(C)cc4)cc3C(=O)N([C@H](C)CO)C[C@H]2C)cc1", "target-system": "S. aureus RN4220", "classification": "label 0"}
{"compound": "CCC1OC(=O)C(C)C(OC2CC(C)(OC)C(O)C(C)O2)C(C)C(OC2OC(C)CC(N(C)C)C2O)C(C)(O)CC(C)C(=O)C(C)C(O)C1(C)O.CCCCCCCCCCCCCCCCCC(=O)O (configuration not stated)", "target-system": "S. aureus RN4220", "classification": "label 0"}
{"compound": "C[C@@H]1CN([C@H](C)CO)C(=O)c2cc(-c3ccncc3)cnc2O[C@H]1CN(C)C(=O)Nc1ccc2c(c1)OCO2", "target-system": "S. aureus RN4220", "classification": "label 0"}
{"compound": "CC[C@H]1OC(=O)[C@H](C)[C@@H](O[C@H]2C[C@@](C)(OC)[C@@H](O)[C@H](C)O2)[C@@H](C)[C@@H](O[C@H]2O[C@H](C)C[C@H](N(C)C)[C@H]2O)[C@](C)(O)C[C@@H](C)C(=O)[C@H](C)[C@@H](O)[C@]1(C)O", "target-system": "S. aureus RN4220", "classification": "label 1"}
{"compound": "CC[C@H]1OC(=O)[C@H](C)[C@@H](O[C@H]2C[C@@](C)(OC)[C@@H](O)[C@H](C)O2)[C@H](C)[C@@H](O[C@@H]2O[C@H](C)C[C@H](N(C)C)[C@H]2O)[C@](C)(O)C[C@@H](C)C(=O)[C@H](C)[C@@H](O)[C@]1(C)O", "target-system": "S. aureus RN4220", "classification": "label 1"}

I'd appreciate the recorded outcome for "C[C@H]1CCCCO[C@@H](CN(C)C(=O)Nc2ccc(C(F)(F)F)cc2)[C@@H](C)CN([C@@H](C)CO)C(=O)c2cc(NC(=O)NC3CCCCC3)ccc2O1" from this test.
label 0

I'd appreciate the recorded outcome for "CCCN1C[C@H](C)[C@@H](O)[C@](C)(O)[C@@H](CC)OC(=O)[C@H](C)[C@@H](O[C@H]2C[C@@](C)(OC)[C@@H](O)[C@H](C)O2)[C@H](C)[C@@H](O[C@@H]2O[C@H](C)C[C@H](N(C)C)[C@H]2O)[C@](C)(O)C[C@H]1C" from this test.
label 1

Origin of measurements: the antibiotic and cytotoxicity screens of Wong et al. (2023)
